- target-under-test: T1, HIDE1_HH-1 (Human ECD + human IgG1 Fc mutated C220S at hinge), without SP (human)
- T1 construct: Batch #280 in the Serotec and phage display work; also called HIDE1 hECD-hIg; HIDE1 (H:H) recombinant Fc fusion protein
- T1 sequence (chain, as listed by the source C220S C220S limits assumed): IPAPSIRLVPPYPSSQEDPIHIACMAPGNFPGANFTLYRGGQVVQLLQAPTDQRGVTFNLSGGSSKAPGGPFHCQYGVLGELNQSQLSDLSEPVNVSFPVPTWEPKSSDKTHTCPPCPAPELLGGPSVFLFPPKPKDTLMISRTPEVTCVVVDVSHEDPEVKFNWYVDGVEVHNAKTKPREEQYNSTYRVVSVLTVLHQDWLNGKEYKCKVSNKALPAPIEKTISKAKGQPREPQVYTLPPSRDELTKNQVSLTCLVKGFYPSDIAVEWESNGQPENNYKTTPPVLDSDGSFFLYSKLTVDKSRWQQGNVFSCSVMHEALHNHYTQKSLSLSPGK
- protocol: SPR (ProteOn), Fab PPE over captured HIDE1-HH-1, 1:1 fit
measurement-type: koff (s⁻¹)
All answers are understood in s⁻¹, so give the number only.

Using the record for CPA.12.002 Fab (A02 S397-01.A08) (Fab, V domains shown, XOMA031 library Fab in periplasmic extract) VH: EVQLVESGGGLVQPGRSLRLSCAASGFTFSSYAMHWVRQVPGKGLEWVAVISYDGSNKYYADSVKGRFTISRDNSKNTLYLQMNSLRAEDTAVYYCAKPMYSSGWYPLGYWGQGTLVTVSS VL: DIVMTQTPLSLPVTPGQPASISCRSSQSPLDTDGNTYLDWYLQRPGQSPQLLIYTLSNRASGVPDRFSGSGSGTDFTLKISRVEAEDVGIYYCMQRIQYPLTFGPGTRLEIKR , report its koff.
0.00083
